- Experimental Target: UniProtKB Q9NYK1
- Assay Name: TLR7 inhibition reporter assay (HEK-Blue cells, SEAP reporter)
- Measurement Parameters: HEK-Blue cells overexpressing human TLR7; stimulated with gardiquimod 7.5 μM; 22 hour incubation; SEAP readout
Hi! Could you tag entries with IC50 below 10000 nM as Condition met, and those at or above as Condition not met? Much appreciated.

> print(dat)
                                   molecule  category.label
1  CS(=O)(=O)c1ccc(-c2cn3cc(C4CCN(C5CC6CCC(C5)N6C5CCC5)CC4)cc(F)c3n2)cc1 (single isomer, unassigned) [Example 118]   Condition met
2  COc1ccc(-c2cn3cc(-c4ccc(N5CCN(C(C)C)CC5)cc4)cc(C)c3n2)cc1OC   Condition met

Problem: Is 10000 nM strictly greater than the molecule's reported IC50? molecule: COc1ccc(-c2nc3cc(C4CCN(C5CCN(CC(C)C)CC5)CC4)ccn3n2)cc1OC
Result: Condition not met

Problem: Decide: IC50 of COc1ccc(-c2cn3c(n2)CCC(C2CCN(C4CC5(C4)CN(CC(C)C)C5)CC2)C3)cc1OC (single isomer, unassigned) [Example 54] strictly below 10000 nM?
Result: Condition met

Problem: Determine whether this molecule shows IC50 lower than 10000 nM (ties excluded): COc1ccc(-c2cn3cc(C4CCN(C5CC6(C5)CN(C(C)C)C6)CC4)cc(C)c3n2)cc1OC
Result: Condition not met

###

- Experimental Target: human TLR9 (Homo sapiens, UniProt Q9NR96)
- Assay Name: TLR9 inhibition reporter assay (HEK-Blue cells, SEAP reporter)
- Measurement Parameters: HEK-Blue cells overexpressing human TLR9; stimulated with ODN2006 5 nM; 22 hour incubation; SEAP readout
- Excerpt: TLR7/8/9 Inhibition Reporter Assays HEK-Blue™-cells (Invivogen) overexpressing human TLR7, TLR8 or TLR9 receptors were used for screening inhibitors of these receptors using an inducible SEAP (secreted embryonic alkaline phosphatase) reporter gene under the control of the […] minimal promoter fused to five NF-κB and AP-1-binding sites. […]
pIC50: −log10 of the molar value.
Label Condition met for high-side pIC50 (at or above 7) and Condition not met for low-side pIC50 (below it).

> print(dat)
                                   compound     category.label
1  COc1ccc(-c2nc3c(C)cc(C4CCN(C5CCN(C6CC6)CC5)CC4)cn3n2)cc1OC [Example 157]  Condition not met
2  CC(C)CN1C2CCC1CC(N1CCC([C@H]3CCc4nc(-c5ccc(S(C)(=O)=O)cc5)cn4C3)CC1)C2 (single isomer, unassigned) [Example 79]  Condition not met
3  COc1ccc(-c2cn3cc(C4CCN(C5CC6CCC(C5)N6C(C)C)CC4)cc(C)c3n2)cc1OC (single isomer, unassigned) [Example 22]      Condition met

Problem: In plain terms: is recorded pIC50 at least 7 for COc1ccc(-c2cn3c(n2)CCC(C2CCN(C4CCN(CC5CC5)CC4)CC2)C3)cc1OC (racemic) [Example 55] ?
Result: Condition met

Problem: Determine whether measured pIC50 meets or exceeds 7 for COc1ccc(-c2cn3cc(C4CCN(C5CC6CCC(C5)N6CC5CC5)CC4)cc(C)c3n2)cc1OC (single isomer, unassigned) [Example 20]
Result: Condition met

Problem: API: above_or_equal(metric=pIC50, cutoff=7) for item Cc1cc(C2CC3CCC(C2)N3C2CCN(C3CC3)CC2)cn2nc(-c3ccc(S(C)(=O)=O)cc3)nc12 (stereo not drawn) [Example 159]
Result: Condition not met

Problem: Evaluate Cc1cc(-c2ccc(N3CCN(C(C)C)CC3)cc2)cn2nc(-c3ccc(S(C)(=O)=O)cc3)nc12 [Example 147] : pIC50 at minimum 7?
Result: Condition not met

Problem: State whether the measured pIC50 reaches 7, counting equality as reaching it, for CC(C)N1CCC(N2CCC(c3cc(F)c4nc(-c5ccc(S(C)(=O)=O)cc5)cn4c3)CC2)CC1 [Example 67]
Result: Condition met

###

- Experimental Target: human TLR9 (Homo sapiens)
- Sequence (Q9NR96 26-1032): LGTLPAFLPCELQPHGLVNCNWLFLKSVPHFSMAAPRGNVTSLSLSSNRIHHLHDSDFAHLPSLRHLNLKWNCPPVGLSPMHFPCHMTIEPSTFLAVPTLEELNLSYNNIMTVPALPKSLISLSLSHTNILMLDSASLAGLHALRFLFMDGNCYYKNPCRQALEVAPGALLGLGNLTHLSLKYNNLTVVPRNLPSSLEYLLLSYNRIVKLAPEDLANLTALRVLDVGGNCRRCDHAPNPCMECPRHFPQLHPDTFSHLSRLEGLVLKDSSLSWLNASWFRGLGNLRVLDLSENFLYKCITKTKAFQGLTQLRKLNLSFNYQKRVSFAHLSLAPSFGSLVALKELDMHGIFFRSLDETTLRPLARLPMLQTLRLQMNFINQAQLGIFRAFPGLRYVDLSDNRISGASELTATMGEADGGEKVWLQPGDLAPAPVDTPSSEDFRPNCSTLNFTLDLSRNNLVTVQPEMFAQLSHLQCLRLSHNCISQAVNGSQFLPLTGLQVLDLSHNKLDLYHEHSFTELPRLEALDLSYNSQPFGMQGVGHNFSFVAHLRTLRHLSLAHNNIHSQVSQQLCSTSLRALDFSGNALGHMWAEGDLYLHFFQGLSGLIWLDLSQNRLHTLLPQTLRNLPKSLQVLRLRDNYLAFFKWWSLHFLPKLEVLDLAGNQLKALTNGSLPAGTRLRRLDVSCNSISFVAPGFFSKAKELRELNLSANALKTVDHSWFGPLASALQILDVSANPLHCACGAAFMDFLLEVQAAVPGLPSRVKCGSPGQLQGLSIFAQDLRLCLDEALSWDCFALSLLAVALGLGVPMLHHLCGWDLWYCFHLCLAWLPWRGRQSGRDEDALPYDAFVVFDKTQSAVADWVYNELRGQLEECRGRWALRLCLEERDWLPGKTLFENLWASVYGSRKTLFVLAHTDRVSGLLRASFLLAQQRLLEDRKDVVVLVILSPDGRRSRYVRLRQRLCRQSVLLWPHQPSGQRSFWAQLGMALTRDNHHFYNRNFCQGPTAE
- Assay Name: TLR9 inhibition reporter assay (HEK-Blue cells, SEAP reporter)
- Measurement Parameters: HEK-Blue cells overexpressing human TLR9; stimulated with ODN2006 5 nM; 22 hour incubation; SEAP readout
Recorded measurements of pIC50, one per entry
The read-out pIC50 is expressed as -log10 of concentration in moles per litre.

Problem: Value lookup for pIC50; key = Cc1cc(C2CCN(C3CCN(C(C)C)CC3)CC2)cn2cc(-c3ccc(S(C)(=O)=O)cc3)nc12
Result: 7.68

Problem: Recorded pIC50 of COc1ccc(-c2cn3cc(-c4ccc(N5CCN(C6COC6)CC5)cc4)cc(C)c3n2)cc1OC , please.
Result: 5.62

Problem: What value of pIC50 has been reported for the following compound? Cc1cc(C2CCN(C3CC4CCC(C3)N4CC3CCC3)CC2)cn2cc(-c3ccc(S(C)(=O)=O)cc3)nc12 (single isomer, unassigned) [Example 90]
Result: 6.98

Problem: Dear colleague, I am looking for the recorded pIC50 of the following compound: COc1ccc(-c2nc3c(C)cc(C4CC5CCC(C4)N5C4CCN(C5CC5)CC4)cn3n2)cc1OC (centres unmarked)
Result: 6.67

Problem: What measured pIC50 goes with CC(C)CN1CCCC(N2CCC(c3cc(F)c4nc(-c5ccc(S(C)(=O)=O)cc5)cn4c3)CC2)CC1 (single isomer, unassigned) [Example 126] ?
Result: 8.11

Problem: Give its pIC50 value. Item: Cc1cc(-c2ccc(N3CCN(C4COC4)CC3)cc2)cn2cc(-c3ccc(S(C)(=O)=O)cc3)nc12
Result: 5.04

Problem: I am curious: what pIC50 value has been reported for COc1ccc(-c2cn3cc(-c4ccc(N5CCN(CC6CC6)CC5)cc4)cc(C)c3n2)cc1OC ?
Result: 6.27

Problem: Report pIC50 for CS(=O)(=O)c1ccc(-c2cn3cc(C4CCN(C5CC6CCC(C5)N6C5COC5)CC4)cc(F)c3n2)cc1 (single isomer, unassigned) [Example 119] please.
Result: 7.52

###

- Experimental Target: human TLR7 (Homo sapiens, UniProt Q9NYK1)
- Sequence (Q9NYK1 27-1049): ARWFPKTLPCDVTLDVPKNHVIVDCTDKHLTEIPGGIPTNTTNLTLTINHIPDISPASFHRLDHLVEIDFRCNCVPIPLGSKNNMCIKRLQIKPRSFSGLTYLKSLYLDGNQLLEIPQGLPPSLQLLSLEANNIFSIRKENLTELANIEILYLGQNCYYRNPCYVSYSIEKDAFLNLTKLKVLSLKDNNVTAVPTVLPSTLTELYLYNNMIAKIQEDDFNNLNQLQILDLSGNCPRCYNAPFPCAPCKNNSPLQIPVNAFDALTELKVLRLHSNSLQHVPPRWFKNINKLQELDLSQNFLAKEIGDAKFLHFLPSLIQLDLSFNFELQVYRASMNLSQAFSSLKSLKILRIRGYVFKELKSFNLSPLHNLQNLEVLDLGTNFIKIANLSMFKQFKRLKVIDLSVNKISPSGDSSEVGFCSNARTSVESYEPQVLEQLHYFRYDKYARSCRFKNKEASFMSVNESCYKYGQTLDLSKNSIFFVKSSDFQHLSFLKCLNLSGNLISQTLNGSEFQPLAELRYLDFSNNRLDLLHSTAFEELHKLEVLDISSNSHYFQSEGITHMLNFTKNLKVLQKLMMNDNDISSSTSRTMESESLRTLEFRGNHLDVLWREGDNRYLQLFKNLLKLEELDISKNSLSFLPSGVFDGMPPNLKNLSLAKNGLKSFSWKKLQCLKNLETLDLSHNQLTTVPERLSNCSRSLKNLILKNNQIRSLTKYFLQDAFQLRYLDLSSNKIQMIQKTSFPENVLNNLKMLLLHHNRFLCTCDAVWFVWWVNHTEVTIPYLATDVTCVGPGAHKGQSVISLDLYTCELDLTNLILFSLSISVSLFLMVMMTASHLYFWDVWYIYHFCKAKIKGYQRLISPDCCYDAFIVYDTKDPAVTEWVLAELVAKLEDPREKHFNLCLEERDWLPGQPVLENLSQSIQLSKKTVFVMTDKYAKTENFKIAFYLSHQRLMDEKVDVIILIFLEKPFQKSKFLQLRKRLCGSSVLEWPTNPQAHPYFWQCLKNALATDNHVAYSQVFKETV
- Assay Name: TLR7 inhibition reporter assay (HEK-Blue cells, SEAP reporter)
- Assay type: cell-based
- Measurement Parameters: HEK-Blue cells overexpressing human TLR7; stimulated with gardiquimod 7.5 μM; 22 hour incubation; SEAP readout
Measured Parameter: IC50

# example entries with known answers
> print(dat)
                                   molecule  measured.parameter  test.result
1  CS(=O)(=O)c1ccc(-c2cn3c(n2)CC[C@H](C2CCN(C4CC5CCC(C4)N5CC4CC4)CC2)C3)cc1 (single isomer, unassigned) [Example 138]                IC50      > 50 µM
2  COc1ccc(-c2cn3c(n2)CCC(C2CCN(C4CC5(C4)CN(CC4CC4)C5)CC2)C3)cc1OC (racemic)                IC50      > 50 µM
3  CC(C)CN1CCC(N2CCC(c3cc(F)c4nc(-c5ccc(S(C)(=O)=O)cc5)cn4c3)CC2)CC1                IC50        11 µM
4  COc1ccc(-c2cn3c(n2)CC[C@@H](C2CCN(C4CC5CCC(C4)N5CC(C)C)CC2)C3)cc1OC (single isomer, unassigned) [Example 77]                IC50       3.6 µM
5  COCCN1CCN(c2ccc(-c3cc(C)c4nc(-c5ccc(OC)c(OC)c5)cn4c3)cc2)CC1                IC50         1 µM

Problem: What measured IC50 goes with COc1ccc(-c2cn3cc(C4CCN(C5CCN(C6CC6)CC5)CC4)cc(C)c3n2)cc1F ?
Result: 5.5 µM

Problem: Param item = COc1ccc(-c2cn3c(n2)CCC(C2CCN(C4CC5(C4)CN(C(C)C)C5)CC2)C3)cc1OC (single isomer, unassigned) [Example 46] ; retrieve measured IC50.
Result: 30 µM
